- Test system: HaCat
- Assay Method Text: Cytotoxic Profiling of Annotated Libraries Using Quantitative High-Throughput Screening (AID 1296008); further: on the % scale 0 is the no-effect control and ±100 the full control effect; nearly all actives have a fitted effect of over 60% in size
- Assay Context: Five cell lines viability, CellTiter-Glo ATP luminescence, 48-72 h; active compounds read low
Results filed as inconclusive are left out.
I'd appreciate it if you could supply max response values for the items below.
Numeric answer only, unit % assumed.

Query CCc1cccc(CC)c1NC(=O)CN(CC(=O)O)CC(=O)O on HaCat; max response returned: -2.45

Tested on HaCat, the item Nc1ccc(S(=O)(=O)c2ccc(N)cc2)cc1 showed max response equal to 2.48

Observed max response on HaCat, entry C[N+](C)(C)CC[N+]1(C)Cc2c(Cl)c(Cl)c(Cl)c(Cl)c2C1 , equals -6.5

Lab note: compound Nc1ncnc(Nc2ccccc2)n1 tested on HaCat; recorded max response was 0.531

The observed max response for CCOC(N)=O when tested with HaCat stands at -12.1

Short answer on HaCat for CC(=O)[C@@]1(O)CC[C@H]2[C@@H]3C[C@H](C)C4=CC(=O)C=C[C@]4(C)[C@@]3(F)[C@@H](O)C[C@@]21C , max response: 4.35

Item COc1cc(O)cc(O)c1 ; assay system HaCat; max response reported as -8.13

# lookup: O=C(c1ccccc1)C(O)c1ccccc1 (configuration not stated) on HaCat, max response = -0.758

# max response measured on HaCat for item O=C(O)[C@@H]1[C@H]2C[C@H]3c4[nH]c5ccccc5c4CCN3C[C@@H]2CC[C@@H]1O = 4.24

Bench note, HaCat: CN(C(=O)c1c(O)c2ccccc2n(C)c1=O)c1ccccc1 , max response reads -1.18

# value of max response, HaCat, item O=C(CN1CCNCC1)NC1CCCCC1 = 0.716

Summary: O=C(O)CNC(=O)c1ccccc1I , HaCat, max response = -16.3

Reported HaCat max response for item COc1cc(C(=O)NCCCCCC(=O)O)cc(OC)c1OC was 4.84

Measured max response (HaCat), entry O=C(Cn1ccnc1[N+](=O)[O-])NCCO : 0.0021

The value of max response recorded for NNc1nnc(NN)c2ccccc12 when tested on HaCat reads 3.01

HaCat max response of CCOC(=O)[C@H](CCc1ccccc1)N[C@@H](C)C(=O)N1Cc2cc(OC)c(OC)cc2C[C@H]1C(=O)O is 2.61

HaCat data for CCCCCCCCCCOc1cc2c(=O)c(C(=O)OCC)c[nH]c2cc1OCC ; its max response: -5.57

Entry CN[C@@H]1[C@@H](O)[C@@H](O[C@@H]2[C@H](O)[C@H](O[C@H]3OC(CN)=CC[C@H]3N)[C@@H](N)C[C@H]2N)OCC1(C)O (some centres not stated) under HaCat had max response of 1.23

The observed max response for Cc1c(C)c2c(c(C)c1OC(=O)c1cccnc1)CC[C@@](C)(CCC[C@H](C)CCC[C@H](C)CCCC(C)C)O2 when tested with HaCat stands at 0.9

Simply: NC(=O)c1ccc([N+](=O)[O-])cc1Cl , HaCat, max response = -15.2

Observed max response, HaCat, COC(=O)c1ccccc1C(=O)c1ccc(OCCN2CCCCC2)cc1 : -0.875

The compound CC(=O)N(CC(O)CN(C(C)=O)c1c(I)c(C(=O)NCC(O)CO)c(I)c(C(=O)NCC(O)CO)c1I)c1c(I)c(C(=O)NCC(O)CO)c(I)c(C(=O)NCC(O)CO)c1I (configuration not stated) , tested on HaCat, showed max response of -14.3

Reference for the values: PubChem BioAssay (NCATS)
